meta.source: ChEMBL document CHEMBL1772969

System: Plasmodium falciparum
Assay: Antimalarial activity against chloroquine-sensitive Plasmodium falciparum D6 after 48 hrs by [3H]hypoxanthine incorporation assay
Format: functional, organism-based
Measure name: IC50 (µM)
The answer is to be given in µM; state only the numeric part.

Summary for this compound, CCOC(=O)CCN(CCN1C[C@H](C)C[C@@](C)(O)[C@H](O[C@@H]2O[C@H](C)C[C@H](N(C)C)[C@H]2O)[C@@H](C)[C@H](O[C@H]2C[C@@](C)(OC)[C@@H](O)[C@H](C)O2)[C@@H](C)C(=O)O[C@H](CC)[C@@](C)(O)[C@H](O)[C@H]1C)C(=O)Nc1ccc2ccccc2c1 : IC50 is 0.773

Summary for this compound, CC[C@H]1OC(=O)[C@H](C)[C@@H](O[C@H]2C[C@@](C)(OC)[C@@H](O)[C@H](C)O2)[C@H](C)[C@@H](O[C@@H]2O[C@H](C)C[C@H](N(C)C)[C@H]2O)[C@](C)(O)C[C@@H](C)CN(CCN(CCC#N)C(=S)NCCc2ccccc2)[C@H](C)[C@@H](O)[C@]1(C)O : IC50 is 0.295

###

Exercise: state measured pIC50 for each of the compounds provided.
Tested on: Plasmodium falciparum
Assay: Antimalarial activity against chloroquine/pyrimethamine-resistant Plasmodium falciparum W2 after 48 hrs by [3H]hypoxanthine incorporation assay
Type: functional, organism-based
Hey, just a heads up that pIC50 is the negative log base 10 of the concentration in molar.

Param item: CC[C@H]1OC(=O)[C@H](C)[C@@H](O)[C@H](C)[C@@H](O[C@@H]2O[C@H](C)C[C@H](N(C)C)[C@H]2O)[C@](C)(O)C[C@@H](C)CN(CCNC(=S)NCCCc2ccccc2)[C@H](C)[C@@H](O)[C@]1(C)O ; param system: Plasmodium falciparum; output pIC50: 6.75

Param item: CC[C@H]1OC(=O)[C@H](C)[C@@H](O[C@H]2C[C@@](C)(OC)[C@@H](O)[C@H](C)O2)[C@H](C)[C@@H](O[C@@H]2O[C@H](C)C[C@H](N(C)C)[C@H]2O)[C@](C)(O)C[C@@H](C)CN(CCNC(=O)NC(C)C)[C@H](C)[C@@H](O)[C@]1(C)O ; param system: Plasmodium falciparum; output pIC50: 5.69

Param item: CC[C@H]1OC(=O)[C@H](C)[C@@H](O[C@H]2C[C@@](C)(OC)[C@@H](O)[C@H](C)O2)[C@H](C)[C@@H](O[C@@H]2O[C@H](C)C[C@H](N(C)C)[C@H]2O)[C@](C)(O)C[C@@H](C)CN(CCNC(=S)NCCc2ccccc2)[C@H](C)[C@@H](O)[C@]1(C)O ; param system: Plasmodium falciparum; output pIC50: 6.99

Param item: CC[C@H]1OC(=O)[C@H](C)[C@@H](O[C@H]2C[C@@](C)(OC)[C@@H](O)[C@H](C)O2)[C@H](C)[C@@H](O[C@@H]2O[C@H](C)C[C@H](N(C)C)[C@H]2O)[C@](C)(O)C[C@@H](C)CN(CCN(CCC(N)=O)C(=O)Nc2ccc3ccccc3c2)[C@H](C)[C@@H](O)[C@]1(C)O ; param system: Plasmodium falciparum; output pIC50: 7.21

Param item: CC[C@H]1OC(=O)[C@H](C)[C@@H](O[C@H]2C[C@@](C)(OC)[C@@H](O)[C@H](C)O2)[C@H](C)[C@@H](O[C@@H]2O[C@H](C)C[C@H](N(C)C)[C@H]2O)[C@](C)(O)C[C@@H](C)CN(CCNC(=O)Nc2ccccc2)[C@H](C)[C@@H](O)[C@]1(C)O ; param system: Plasmodium falciparum; output pIC50: 7.17

Param item: CC[C@H]1OC(=O)[C@H](C)[C@@H](O[C@H]2C[C@@](C)(OC)[C@@H](O)[C@H](C)O2)[C@H](C)[C@@H](O[C@@H]2O[C@H](C)C[C@H](N(C)C)[C@H]2O)[C@](C)(O)C[C@@H](C)CN(CCCNC(=O)NC(C)c2cccc3ccccc23)[C@H](C)[C@@H](O)[C@]1(C)O (some centres not stated) ; param system: Plasmodium falciparum; output pIC50: 6.97

Param item: CCOC(=O)CCN(CCN1C[C@H](C)C[C@@](C)(O)[C@H](O[C@@H]2O[C@H](C)C[C@H](N(C)C)[C@H]2O)[C@@H](C)[C@H](O[C@H]2C[C@@](C)(OC)[C@@H](O)[C@H](C)O2)[C@@H](C)C(=O)O[C@H](CC)[C@@](C)(O)[C@H](O)[C@H]1C)C(=O)Nc1ccc2ccccc2c1 ; param system: Plasmodium falciparum; output pIC50: 6.68

###

Test system: HepG2
Assay: Cytotoxicity against human HepG2 cells after 1 to 4 hrs by MTS assay
Assay type: cell-based
Measure name: IC50
# output: number + unit

Summary for this compound, CC[C@H]1OC(=O)[C@H](C)[C@@H](O[C@H]2C[C@@](C)(OC)[C@@H](O)[C@H](C)O2)[C@H](C)[C@@H](O[C@@H]2O[C@H](C)C[C@H](N(C)C)[C@H]2O)[C@](C)(O)C[C@@H](C)CN(CCNC(=O)Nc2cccc3ccccc23)[C@H](C)[C@@H](O)[C@]1(C)O : IC50 is 35 µM

Summary for this compound, CC[C@H]1OC(=O)[C@H](C)[C@@H](O[C@H]2C[C@@](C)(OC)[C@@H](O)[C@H](C)O2)[C@H](C)[C@@H](O[C@@H]2O[C@H](C)C[C@H](N(C)C)[C@H]2O)[C@](C)(O)C[C@@H](C)CN(CCN(CCC(N)=O)C(=O)Nc2ccc3ccccc3c2)[C@H](C)[C@@H](O)[C@]1(C)O : IC50 is 13 µM

###

Exercise: state measured half-life for each of the compounds provided.
Assay: Half life in Sprague-Dawley rat at 10 mg/kg, iv and 30 mg/kg, po
Assay type: ADME, organism-based
Conditions: in vivo
The answer is to be given in h; state only the numeric part.

Summary for this compound, CC[C@H]1OC(=O)[C@H](C)[C@@H](O[C@H]2C[C@@](C)(OC)[C@@H](O)[C@H](C)O2)[C@H](C)[C@@H](O[C@@H]2O[C@H](C)C[C@H](N(C)C)[C@H]2O)[C@](C)(O)C[C@@H](C)CN(CCCN(CCC#N)C(=O)Nc2ccc(Cl)cc2Cl)[C@H](C)[C@@H](O)[C@]1(C)O : half-life is 41.5

Summary for this compound, CC[C@H]1OC(=O)[C@H](C)[C@@H](O[C@H]2C[C@@](C)(OC)[C@@H](O)[C@H](C)O2)[C@H](C)[C@@H](O[C@@H]2O[C@H](C)C[C@H](N(C)C)[C@H]2O)[C@](C)(O)C[C@@H](C)CN(C)[C@H](C)[C@@H](O)[C@]1(C)O : half-life is 24

Summary for this compound, CC[C@H]1OC(=O)[C@H](C)[C@@H](O[C@H]2C[C@@](C)(OC)[C@@H](O)[C@H](C)O2)[C@H](C)[C@@H](O[C@@H]2O[C@H](C)C[C@H](N(C)C)[C@H]2O)[C@](C)(O)C[C@@H](C)CN(CCCNC(=S)NCCCc2ccccc2)[C@H](C)[C@@H](O)[C@]1(C)O : half-life is 13.4

Summary for this compound, CC[C@H]1OC(=O)[C@H](C)[C@@H](O[C@H]2C[C@@](C)(OC)[C@@H](O)[C@H](C)O2)[C@H](C)[C@@H](O[C@@H]2O[C@H](C)C[C@H](N(C)C)[C@H]2O)[C@](C)(O)C[C@@H](C)CN(CCCN(CCC#N)C(=S)NCCCc2ccccc2)[C@H](C)[C@@H](O)[C@]1(C)O : half-life is 15.2

Summary for this compound, CC[C@H]1OC(=O)[C@H](C)[C@@H](O[C@H]2C[C@@](C)(OC)[C@@H](O)[C@H](C)O2)[C@H](C)[C@@H](O[C@@H]2O[C@H](C)C[C@H](N(C)C)[C@H]2O)[C@](C)(O)C[C@@H](C)CN(CCCNC(=S)NCc2ccccc2)[C@H](C)[C@@H](O)[C@]1(C)O : half-life is 30

###

Tested on: HepG2
Test: Cytotoxicity against human HepG2 cells after 1 to 4 hrs by MTS assay
Assay type: cell-based
Measure name: IC50 (µM)
The answer is to be given in µM; state only the numeric part.

Summary for this compound, CC[C@H]1OC(=O)[C@H](C)[C@@H](O[C@H]2C[C@@](C)(OC)[C@@H](O)[C@H](C)O2)[C@H](C)[C@@H](O[C@@H]2O[C@H](C)C[C@H](N(C)C)[C@H]2O)[C@](C)(O)C[C@@H](C)CN(CCNC(=O)Nc2ccccc2)[C@H](C)[C@@H](O)[C@]1(C)O : IC50 is 48

Summary for this compound, CC[C@H]1OC(=O)[C@H](C)[C@@H](O)[C@H](C)[C@@H](O[C@@H]2O[C@H](C)C[C@H](N(C)C)[C@H]2O)[C@](C)(O)C[C@@H](C)CN(CCNC(=S)NCCCc2ccccc2)[C@H](C)[C@@H](O)[C@]1(C)O : IC50 is 14

Summary for this compound, CCOC(=O)CCN(CCN1C[C@H](C)C[C@@](C)(O)[C@H](O[C@@H]2O[C@H](C)C[C@H](N(C)C)[C@H]2O)[C@@H](C)[C@H](O[C@H]2C[C@@](C)(OC)[C@@H](O)[C@H](C)O2)[C@@H](C)C(=O)O[C@H](CC)[C@@](C)(O)[C@H](O)[C@H]1C)C(=O)Nc1ccc2ccccc2c1 : IC50 is 23
